- Measured Target: human TLR9 (Homo sapiens, UniProt Q9NR96)
- Sequence (Q9NR96 26-1032): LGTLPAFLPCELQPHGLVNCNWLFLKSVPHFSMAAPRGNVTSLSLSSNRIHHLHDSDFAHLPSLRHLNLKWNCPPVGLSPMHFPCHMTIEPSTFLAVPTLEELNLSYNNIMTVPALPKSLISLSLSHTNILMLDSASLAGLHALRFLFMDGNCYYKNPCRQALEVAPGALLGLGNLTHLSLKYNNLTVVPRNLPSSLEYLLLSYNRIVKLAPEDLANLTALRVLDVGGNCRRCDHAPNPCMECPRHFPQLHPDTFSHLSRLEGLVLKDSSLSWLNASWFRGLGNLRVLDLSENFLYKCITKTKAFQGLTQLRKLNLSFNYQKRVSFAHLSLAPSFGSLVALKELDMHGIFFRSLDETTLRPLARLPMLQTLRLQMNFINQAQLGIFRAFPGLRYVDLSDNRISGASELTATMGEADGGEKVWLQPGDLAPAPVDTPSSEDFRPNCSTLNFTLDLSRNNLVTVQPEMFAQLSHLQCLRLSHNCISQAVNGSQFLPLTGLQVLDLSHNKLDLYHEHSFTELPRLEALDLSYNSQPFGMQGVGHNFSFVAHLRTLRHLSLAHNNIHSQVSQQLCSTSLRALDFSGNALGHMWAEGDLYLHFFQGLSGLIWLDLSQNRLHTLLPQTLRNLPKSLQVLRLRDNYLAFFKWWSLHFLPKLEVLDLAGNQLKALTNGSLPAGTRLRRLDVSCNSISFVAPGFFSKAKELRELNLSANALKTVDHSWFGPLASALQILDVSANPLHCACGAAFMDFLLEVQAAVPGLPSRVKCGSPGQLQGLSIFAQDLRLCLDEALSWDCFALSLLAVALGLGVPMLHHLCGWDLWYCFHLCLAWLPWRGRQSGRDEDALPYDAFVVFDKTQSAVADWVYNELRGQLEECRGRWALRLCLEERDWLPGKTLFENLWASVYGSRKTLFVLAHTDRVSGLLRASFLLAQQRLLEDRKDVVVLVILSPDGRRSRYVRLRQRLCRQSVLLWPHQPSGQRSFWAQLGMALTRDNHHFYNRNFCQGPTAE
- Assay Details: TLR9 inhibition reporter assay (HEK-Blue cells, SEAP reporter, ODN2006 stimulation)
- Assay Conditions: HEK-Blue cells overexpressing human TLR9, SEAP reporter, ODN2006 5 nM
// reported IC50 per item
Numeric only. Scale: µM

Worked set:
COc1cc(-c2[nH]c3ccc(C4CCC(N)CC4)cc3c2C(C)C)cn2ncnc12 (single isomer, unassigned) [Example 1]: 0.793
Cc1cc(-c2[nH]c3ccc(C4CCCN(C(=O)CN5CCOCC5)C4)cc3c2C(C)C)cc(C)n1 (stereo not drawn) [Example 197]: 44.6
CCN(C)C1CCC(c2ccc3[nH]c(-c4cc(OC)c5ncnn5c4)c(C(C)C)c3c2)CC1 (single isomer, unassigned) [Example 66]: 1.17
Cc1c(-c2[nH]c3ccc(C4CN(Cc5ncn(C)n5)C4)cc3c2C(C)C)cn2cnnc2c1C: 27.8
Cc1c(-c2[nH]c3ccc(C4CCCN(CC(=O)N(C)C)C4)cc3c2C(C)C)cn2ncnc2c1C (stereo not drawn) [Example 230]: 5.79

Please give the measured IC50 for this compound: Cc1c(-c2[nH]c3ccc(C4CC(N)C4)cc3c2C(C)C)cn(C)c(=O)c1C (stereo not drawn) [Example 493]
4.2

Please give the measured IC50 for this compound: Cc1cc(-c2[nH]c3ccc(C4CCC(N(C)C(=O)CN(C)C)CC4)cc3c2C(C)C)cn2ncnc12 (stereo not drawn) [Example 149]
2.3

Please give the measured IC50 for this compound: COc1cc(-c2[nH]c3ccc(C4CCCNC4)cc3c2C(C)C)cn2ncnc12 (stereo not drawn) [Example 181]
1.21

Please give the measured IC50 for this compound: Cc1cc(-c2[nH]c3ccc(CCN4CC[C@@H](F)C4)cc3c2C(C)C)cn(C)c1=O
15.6

Please give the measured IC50 for this compound: Cc1cc(-c2[nH]c3ccc(C4CN(CC(=O)N(C)C)C(C)(C)CO4)cc3c2C(C)C)cn2ncnc12 (single isomer, unassigned)
5.37
